target: Estrogen receptor (Homo sapiens) (UniProt P03372); assay: qHTS assay to identify small molecule antagonists of the estrogen receptor alpha (ER-alpha) signaling pathway using the BG1 cell line in the presence of 0.1 nM 17-beta-estradiol (AID 1259244); conditions: VM7Luc4E2 (BG1) ERE-luciferase, antagonist mode, 0.1 nM E2, 22 h; series mostly up to 92.4 µM; further: on the % scale 0 is the no-effect control and ±100 the full control effect; nearly all actives have a fitted effect of over 50% in size
Sequence (P03372 whole entry, looked up): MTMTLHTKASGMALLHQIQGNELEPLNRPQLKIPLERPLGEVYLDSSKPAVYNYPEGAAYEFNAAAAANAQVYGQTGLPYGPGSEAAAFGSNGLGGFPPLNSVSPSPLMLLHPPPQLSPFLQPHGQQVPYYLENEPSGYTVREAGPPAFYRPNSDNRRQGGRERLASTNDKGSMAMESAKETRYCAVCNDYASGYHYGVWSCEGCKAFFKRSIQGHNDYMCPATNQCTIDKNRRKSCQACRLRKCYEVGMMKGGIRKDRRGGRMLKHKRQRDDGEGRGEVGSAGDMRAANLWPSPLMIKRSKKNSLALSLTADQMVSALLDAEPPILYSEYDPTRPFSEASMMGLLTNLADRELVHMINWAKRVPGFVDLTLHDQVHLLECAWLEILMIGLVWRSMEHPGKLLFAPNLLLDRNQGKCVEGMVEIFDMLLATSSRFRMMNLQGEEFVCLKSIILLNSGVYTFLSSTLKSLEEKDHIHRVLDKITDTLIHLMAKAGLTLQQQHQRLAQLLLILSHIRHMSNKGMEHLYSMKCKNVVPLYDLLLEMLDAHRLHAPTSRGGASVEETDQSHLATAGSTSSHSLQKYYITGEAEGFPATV
Results filed as inconclusive are left out. Active and inactive are the calls of the source. The call rests on the fitted dose curve; in most records, active means well fitted inhibition curve with a large enough effect in the repeat runs; inconclusive means weak or mixed curves; inactive means no such curve, though single readings can be large or run the other way.
PROPERTY NAME: activity change, negative = inhibition

{"columns": ["COMPOUND", "activity change, negative = inhibition"],
 "data": [
  ["Cc1nc2n(c(=O)c1CCN1CCC(c3noc4cc(F)ccc34)CC1)CCC[C@H]2O", "1.12% [at 19 µM] (inactive)"],
  ["CCCCCCCCCC(C)=O", "inactive"],
  ["Cc1[nH]cnc1-c1ccc(Cl)cc1", "inactive"],
  ["CCC(CC)CO", "inactive"],
  ["CC(=C(CCOC(=O)C(C)C)SSC(CCOC(=O)C(C)C)=C(C)N(C=O)Cc1cnc(C)nc1N)N(C=O)Cc1cnc(C)nc1N", "inactive"]
]}

**Query** What value of measured activity change, negative = inhibition is listed for Cc1ccccc1C(=O)Nc1ccc(C(=O)N2CCCC(N(C)C)c3ccccc32)cc1 (stereo unspecified) ?
**Result** inactive

###

assay: Caspase-3/7 induction in HepG2 cells by small molecules, qHTS assay (AID 1346978); details: HepG2 caspase-3/7 activation, Caspase-Glo luminescence, 17 h; series mostly up to 92.4 µM; further: on the % scale 0 is the no-effect control and ±100 the full control effect; nearly all actives have a fitted effect of over 15% in size
Results filed as inconclusive are left out. Activity calls are given as the source filed them. The call rests on the fitted dose curve; in most records, active means well fitted activation curve with a large enough effect in the repeat runs; inconclusive means weak or mixed curves; inactive means flat fitted curve, though single readings scatter.

{"columns": ["MOLECULE SMILES", "caspase activation"],
 "data": [
  ["CC(C)(C)OC(=O)c1ccc(O)cc1", "inactive"],
  ["NCCN1CCOCC1", "inactive"],
  ["COC(=O)c1ccccc1C(=O)c1ccc(OCCN2CCCCC2)cc1", "inactive"]
]}

###

biological target: Thyrotropin receptor (Homo sapiens); assay: qHTS assay to identify small molecule antagonists of the thyroid stimulating hormone receptor (TSHR) signaling pathway (AID 1259385); details: TSHR-HEK293 cAMP HTRF, TSH-stimulated antagonist mode; series mostly up to 92.4 µM; further: on the % scale 0 is the no-effect control and ±100 the full control effect; nearly all actives have a fitted effect of over 20% in size
Inconclusive results are not listed. Activity calls are given as the source filed them. The call rests on the fitted dose curve.
PROPERTY NAME: activity change, negative = inhibition

Worked cases, activity change, negative = inhibition given:
{"columns": ["COMPOUND", "MEASURED"],
 "data": [
  ["CNC(=O)[C@H]1O[C@@H](n2cnc3c(NCc4cc(Cl)ccc4OCc4cc(C)no4)ncnc32)[C@H](O)[C@@H]1N", "inactive"],
  ["NS(=O)(=O)c1ccc(NC(=O)CCC(=O)O)cc1", "inactive"],
  ["O=C1c2cccc3c2[C@H](CCC3)CN1[C@@H]1CN2CCC1CC2", "inactive"],
  ["COC(=O)C1CC(=O)C(C(=O)OC)CC1=O (stereo not drawn)", "0.232% [at 8.39 µM] (inactive)"],
  ["CC/C=C\\CC1=C(C)CCC1=O", "inactive"],
  ["On1nnc2ccccc21", "inactive"]
]}

**Query** What value of measured activity change, negative = inhibition is listed for `CCC(C=O)CC` ?
**Result** inactive

###

assay: qHTS RealTime-Glo MT Cell Viability Assay in HEK293 cells - 24 hour (AID 1224886); conditions: RealTime-Glo luminescence; series mostly up to 76.8 µM; further: top concentration of the series differs between compounds; on the % scale 0 is the no-effect control and ±100 the full control effect; nearly all actives have a fitted effect of over 50% in size
Results filed as inconclusive are left out. Calls of active or inactive are those of the source. Calls follow the shape of the dose curve; as a rule, active = well fitted cell-killing curve with a large enough effect in the repeat runs; inconclusive = weak or mixed curves, or effect the other way; inactive = flat fitted curve, though single readings scatter.
PROPERTY NAME: activity change, negative = cytotoxicity

Worked cases, activity change, negative = cytotoxicity given:
{"columns": ["COMPOUND", "activity change, negative = cytotoxicity"],
 "data": [
  ["COC(=O)CCc1ccc(OCC(O)CNC(C)C)cc1 (stereo not given)", "inactive"],
  ["CNC(=O)[C@H]1O[C@@H](n2cnc3c(NCc4cc(Cl)ccc4OCc4cc(C)no4)ncnc32)[C@H](O)[C@@H]1N", "inactive"],
  ["C[C@H](CCC(=O)O)[C@H]1CC[C@H]2[C@@H]3C(=O)C[C@@H]4CC(=O)CC[C@]4(C)[C@H]3CC(=O)[C@]12C", "inactive"],
  ["N[C@@H](COP(=O)(O)O)C(=O)O", "1.75% [at 15.8 µM] (inactive)"]
]}

Pending compound:
**Query** What value of measured activity change, negative = cytotoxicity is listed for `CCC(CC)CO` ?
**Result** inactive

###

assay: qHTS assay for small molecule agonists of the p53 signaling pathway - cell viability (AID 651633); details: p53RE-bla HCT-116 viability, ATP luminescence, 16 h; series mostly up to 83.3 µM;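 further: p53RE-bla HCT reporter cells with a stable beta-lactamase p53 reporter; on the % scale 0 is the no-effect control and ±100 the full control effect; nearly all actives have a fitted effect of over 30% in size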
Records with an inconclusive call do not appear. Activity calls are given as the source filed them. The call rests on the fitted dose curve.
PROPERTY NAME: activity change, negative = cytotoxicity

Worked cases, activity change, negative = cytotoxicity given:
{"columns": ["COMPOUND", "MEASURED"],
 "data": [
  ["CCCCCCOC(=O)CC", "inactive"],
  ["CCCCCCCCSCC", "inactive"],
  ["C=C1CC/C=C(\\C)CC[C@@H]2[C@@H]1CC2(C)C", "inactive"],
  ["N[C@@H](CCC(=O)N[C@@H](CS)C(=O)NCC(=O)O)C(=O)O", "inactive"],
  ["CC/C=C\\CC1=C(C)CCC1=O", "inactive"],
  ["CC(C)(C)c1cc(CCC(=O)NN)cc(C(C)(C)C)c1O", "inactive"],
  ["CCCCCCCCC(=O)Cl", "inactive"],
  ["CC(=O)NCc1c(I)c(NC(C)=O)c(I)c(C(=O)O)c1I", "inactive"],
  ["COc1nccnc1NS(=O)(=O)c1ccc(N)cc1", "inactive"],
  ["C=C(C)C(=O)OCCNC(C)(C)C", "inactive"]
]}

**Query** What value of measured activity change, negative = cytotoxicity is listed for `CO[C@@H]1[C@@H](OC(N)=O)[C@@H](O)[C@H](Oc2ccc3c(O)c(NC(=O)c4ccc(O)c(CC=C(C)C)c4)c(=O)oc3c2C)OC1(C)C` ?
**Result** inactive

**Query** What value of measured activity change, negative = cytotoxicity is listed for `Brc1ccc(-c2ccccc2)cc1` ?
**Result** inactive

###

test: qHTS assay to test for compound auto fluorescence at 460 nm (blue) in HepG2 cells (AID 720687); conditions: autofluorescence 405/460 nm, 1 h; series mostly up to 91.3 µM; further: on the % scale 0 is the no-effect control and ±100 the full control effect
Calls of active or inactive are those of the source. The call rests on the fitted dose curve; in most records, active means well fitted curve in the direction sought with a large enough effect in the repeat runs; inconclusive means weak or mixed curves; inactive means flat fitted curve, though single readings scatter.
PROPERTY NAME: fluorescence, % of fluorescent control

{"columns": ["MOLECULE", "PROPERTY NAME", "MEASURED"],
 "data": [
  ["CCCCCCCC/C=C\\CCCCCCCC(=O)OCCCC", "fluorescence, % of fluorescent control", "-0.0041% [at 18.6 µM] (inactive)"],
  ["NCCN1CCOCC1", "fluorescence, % of fluorescent control", "inactive"],
  ["C=C(C)C1CCC(C)(O)CC1 (centres undefined)", "fluorescence, % of fluorescent control", "inactive"],
  ["O=C(O)CCSSCCC(=O)O", "fluorescence, % of fluorescent control", "inactive"],
  ["CCOC(=O)c1ncn2c1CN(C)C(=O)c1cc(F)ccc1-2", "fluorescence, % of fluorescent control", "inactive"]
]}

**Query** What value of measured fluorescence, % of fluorescent control is listed for `CCN(C)C(=O)Oc1cccc([C@H](C)N(C)C)c1` ?
**Result** inactive

**Query** What value of measured fluorescence, % of fluorescent control is listed for `CN(C)CCOCCO` ?
**Result** inactive

**Query** What value of measured fluorescence, % of fluorescent control is listed for CCCCC(CC)COCCO (centres undefined) ?
**Result** inactive

###

experiment: qHTS RealTime-Glo MT Cell Viability Assay in HEK293 cells - 16 hour (AID 1224872); conditions: RealTime-Glo luminescence; series mostly up to 76.8 µM; further: top concentration of the series differs between compounds; on the % scale 0 is the no-effect control and ±100 the full control effect; nearly all actives have a fitted effect of over 50% in size
Records with an inconclusive call do not appear. Activity calls are given as the source filed them. Calls come from the whole dose curve; as a rule, active = well fitted cell-killing curve with a large enough effect in the repeat runs; inconclusive = weak or mixed curves, or effect the other way; inactive = flat fitted curve, though single readings scatter.
PROPERTY NAME: activity change, negative = cytotoxicity

Worked cases, activity change, negative = cytotoxicity given:
{"columns": ["MOLECULE SMILES", "PROPERTY NAME", "MEASURED"],
 "data": [
  ["COc1cc(NS(=O)(=O)c2ccc(N)cc2)nc(OC)n1", "activity change, negative = cytotoxicity", "inactive"],
  ["O=S(=O)(O)c1cc(O)c2ccc(Nc3ccccc3)cc2c1", "activity change, negative = cytotoxicity", "inactive"],
  ["N[C@@H](CCC(=O)N[C@@H](CS)C(=O)NCC(=O)O)C(=O)O", "activity change, negative = cytotoxicity", "9.65% [at 15.8 µM] (inactive)"],
  ["O=C1c2ccccc2C(=O)N1CCl", "activity change, negative = cytotoxicity", "inactive"],
  ["C=C1CC/C=C(\\C)CC[C@@H]2[C@@H]1CC2(C)C", "activity change, negative = cytotoxicity", "inactive"],
  ["CCn1ccc(NS(=O)(=O)c2ccc(N)cc2)nc1=O", "activity change, negative = cytotoxicity", "inactive"],
  ["CC(C)C(=O)OCCc1ccccc1", "activity change, negative = cytotoxicity", "inactive"],
  ["O=C(NCCc1c[nH]c2ccccc12)c1cccnc1", "activity change, negative = cytotoxicity", "inactive"],
  ["O=C(c1ccc(O)cc1)c1ccc(O)c(O)c1O", "activity change, negative = cytotoxicity", "inactive"],
  ["N[C@@H](COP(=O)(O)O)C(=O)O", "activity change, negative = cytotoxicity", "6.19% [at 15.8 µM] (inactive)"]
]}

**Query** What value of measured activity change, negative = cytotoxicity is listed for `COC(=O)CCCCCCCC(=O)OC` ?
**Result** inactive

**Query** What value of measured activity change, negative = cytotoxicity is listed for `COc1ccc2c(c1OC)C(=O)O[C@@H]2[C@H]1c2c(cc3c(c2OC)OCO3)CCN1C` ?
**Result** inactive
